# study.target: T1, recombinant human PlGF-2 (produced in Pichia) (human, UniProt P49763-3 19-170, limits assumed)
# T1 construct: also called huPlGF-2; rhuPlGF-2
# T1 sequence (looked up): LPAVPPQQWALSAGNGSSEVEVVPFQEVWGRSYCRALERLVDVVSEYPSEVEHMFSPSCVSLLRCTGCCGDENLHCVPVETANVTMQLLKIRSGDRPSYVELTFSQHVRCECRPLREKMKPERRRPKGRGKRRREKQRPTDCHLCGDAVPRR
# measurement.description: Biacore, rhuPlGF-2 (Pichia) immobilized, antibody injected
quantity.measured: pKd
pKd field: float, defined as -log10 of concentration (mol/L).

INPUT: Looking for the measured pKd of murine monoclonal anti-human PlGF antibody 16D3 (antibody, V domains shown, Whole mouse antibody from hybridoma LMBP 6399CB; also called anti-hPlGF; hp16D3mousecomplAB) VH: QIQLQQSGPELVKPGASVKISCKASGYTFTDYYINWVKLKPGQGLEWIGWIYPGSGNTKYNEKFKGKATLTIDTSSSTAYMQLSSLTSEDTAVYFCVRDSPFFDYWGQGTTLTVSS VL: DIVLSQSPSSLAVSAGEKVTMRCKSSQSLLNSGMRKSFLAWYQQKPGQSPKLLIYWASTRESGVPDRFTGSGSGTDFTLTISSVQAEDLAVYYCKQSYHLFTFGSGTKLEIK , can you help?
OUTPUT: 9.54

The reported numbers originate from patent US20110123525A1.
